Assignment: determine reported Percent of Control (POC), B5 for the given compounds.
biological target: HSD17B5 (Homo sapiens, UniProt P42330); construct: made in house; experiment: Steroid substrate panel against HSD17B family member B5; assay type: biochemical; conditions: substrate at 50 μM; estradiol set as 100%
Sequence (P42330 whole entry): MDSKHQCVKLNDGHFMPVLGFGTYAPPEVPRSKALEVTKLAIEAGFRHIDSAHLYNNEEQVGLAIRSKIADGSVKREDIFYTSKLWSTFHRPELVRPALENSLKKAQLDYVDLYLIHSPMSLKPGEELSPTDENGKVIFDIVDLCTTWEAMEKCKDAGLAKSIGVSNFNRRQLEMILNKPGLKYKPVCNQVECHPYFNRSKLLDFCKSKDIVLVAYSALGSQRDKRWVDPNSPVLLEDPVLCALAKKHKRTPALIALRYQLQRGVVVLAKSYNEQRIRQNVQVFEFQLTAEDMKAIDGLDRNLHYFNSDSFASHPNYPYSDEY
Give bare numbers, in %.

Per the records, this compound ( C[C@]12CC[C@H](O)C[C@@H]1CC[C@@H]1[C@@H]2CC[C@]2(C)[C@@H](O)CC[C@@H]12 [5alpha-androstane-3beta,17beta-diol] ) has Percent of Control (POC), B5 equal to 0

// C[C@]12CC[C@H]3[C@@H](CCC4=CC(=O)CC[C@@]43C)[C@@H]1CC[C@@H]2O [Testosterone] : Percent of Control (POC), B5 value = 0

We next turn to a different compound, shown below.
Lookup result for C[C@]12CC[C@@H](O)C[C@@H]1CC[C@@H]1[C@@H]2[C@@H](O)C[C@@]2(C)[C@H]1CC[C@]2(O)C(=O)CO [5alpha-Tetrahydrocortisol] ; measured Percent of Control (POC), B5: 0

====

target: human HSD17B13 (Homo sapiens, UniProt Q7Z5P4); assay: Substrate screening of steroid and bioactive lipid libraries against purified recombinant HSD17B13 (NADH-linked luciferase assay); format: biochemical; conditions: Bioactive Lipid Library, 5 μM bioactive lipid (Estradiol Control 50 μM), 500 μM NAD+, 100 ng enzyme, 3 hours at 23° C.
// returns no (0) unless HSD17B13 Enzymatic Activity Relative Light Units is strictly below 400000 RLU, in which case yes (1)

Completed entries (count: 3):
# input Is HSD17B13 Enzymatic Activity Relative Light Units strictly under 400000 RLU for the entry CC/C=C\C/C=C\C/C=C\C/C=C\CC1OC1CCCC(=O)OC (centres unmarked) ?
# output yes (1)

# input Say whether its HSD17B13 Enzymatic Activity Relative Light Units is strictly beneath 400000 RLU. Entry: CCCCC/C=C\C\C=C/C=C/C=C/[C@H](O)[C@@H](O)CCCC(=O)O [5(S),6(S)-DiHETE]
# output yes (1)

# input Please let me know if CC/C=C\C/C=C\C/C=C\C/C=C\C=C\C(O)CCCC(=O)O (racemic) [(±)5-HEPE] shows HSD17B13 Enzymatic Activity Relative Light Units below 400000 RLU.
# output yes (1)

More entries:
# input Check if HSD17B13 Enzymatic Activity Relative Light Units falls below 400000 RLU for CCCCC/C=C\CC(/C=C/C=C\C/C=C\CCCC(=O)O)OO (racemic) [(±)12-HpETE] .
# output yes (1)

# input Is the reported HSD17B13 Enzymatic Activity Relative Light Units for C[C@@H](O)CCC[C@H](O)/C=C/[C@@H]1[C@@H](C/C=C\CCCC(=O)O)[C@@H](O)C[C@H]1O [19(R)-hydroxy Prostaglandin F2α] strictly below 400000 RLU?
# output yes (1)

# input Confirm or reject: HSD17B13 Enzymatic Activity Relative Light Units of CCCCC[C@@H](O)/C=C/C=C\CCCCCCCCCC(=O)O [15(R)-HEDE] lies strictly below 400000 RLU
# output no (0)

# input Consider the compound CCCCC[C@H](O)/C=C/[C@H]1C=CC(=O)[C@@H]1CCCCCCC(=O)NCCCCCNC(=O)CCCC[C@@H]1SC[C@@H]2NC(=O)N[C@@H]21 . Is its HSD17B13 Enzymatic Activity Relative Light Units strictly less than 400000 RLU?
# output yes (1)

# input Regarding CCCCC[C@@H](O)/C=C/C=C\C/C=C\C/C=C\CCCC(=O)O [15(R)-HETE] , kindly confirm whether its HSD17B13 Enzymatic Activity Relative Light Units is beneath 400000 RLU.
# output no (0)

====

Would you mind telling me the reported HSD17B13 Enzymatic Activity Percent Estradiol Control of each entry?
target: human HSD17B13 (Homo sapiens); assay: Substrate screening of steroid and bioactive lipid libraries against purified recombinant HSD17B13 (NADH-linked luciferase assay); type: biochemical; conditions: Bioactive Lipid Library, 5 μM bioactive lipid, normalized to 50 μM estradiol after subtraction of 5% DMSO

Here are 5 compounds together with their reported answers.
Reported HSD17B13 Enzymatic Activity Percent Estradiol Control of CCCCC[C@H](O)/C=C/[C@@H]1[C@H](C/C=C\CC(=O)O)[C@@H](O)C[C@H]1O [2,3-dinor-8-iso Prostaglandin F2α] : −4.19%

The measured HSD17B13 Enzymatic Activity Percent Estradiol Control associated with CCCCC[C@H](O)/C=C/[C@@H]1[C@@H](C/C=C\CCCC(=O)O)[C@@H]2C[C@H]1OO2 [Prostaglandin H2] reads −9.20%

For record CCCCC/C=C\C/C=C\C/C=C\C=C\C(=O)CCCC(=O)O [5-OxoETE] the listed HSD17B13 Enzymatic Activity Percent Estradiol Control is −1.90%

Per the record, CCCCC/C=C\C=C\[C@H](O)CCCCCCCCCC(=O)O [11(R)-HEDE] has HSD17B13 Enzymatic Activity Percent Estradiol Control of 103.16%

Record CCCCCC(=O)/C=C/[C@@H]1[C@H](C/C=C\CCCC(=O)O)[C@@H](O)C[C@H]1O [8-iso-15-keto Prostaglandin F2α] , field HSD17B13 Enzymatic Activity Percent Estradiol Control: 2.31%

Please give HSD17B13 Enzymatic Activity Percent Estradiol Control, item by item, for the list that follows.
1. C[C@@H](O)CCC[C@H](O)/C=C/[C@H]1C=CC(=O)[C@@H]1C/C=C\CCCC(=O)O [19(R)-hydroxy Prostaglandin A2]
2. CCCCC(C)(O)C/C=C/[C@H]1[C@@H](O)CC(=O)[C@@H]1CCCCCCC(=O)OC (stereo partly drawn) [11β-Misoprostol]
3. CCCCCCCCCCCCCCCC(=O)OC[C@H](COP(=O)([O-])OCC[N+](C)(C)C)OC(=O)CCCC(=O)O [PGPC]
4. O=C(O)CCCC=C1CC2CC(O)C(C#CC(O)C3CCCCC3)C2C1 (stereo not shown)
5. CCCCCC(=O)CC[C@@H]1[C@@H](CC(=O)CCCCC(=O)O)[C@@H](O)C[C@H]1O
6. CCCCC/C=C\CC(/C=C/C=C\C/C=C\CCCC(=O)O)OO (racemic) [(±)12-HpETE]

# output
1: 3.18%; 2: 3.80%; 3: 6.98%; 4: 5.79%; 5: −1.61%; 6: −9.27%

Please look at the items below and tell me HSD17B13 Enzymatic Activity Percent Estradiol Control for each one, in order.
1. CCCCC/C=C\C=C\[C@@H](O)CCCCCCCC(=O)O [9(S)-HODE]
2. CC/C=C\C[C@H](O)/C=C/[C@@H]1[C@H](C/C=C\CCCC(=O)O)[C@@H](O)C[C@H]1O [8-iso Prostaglandin F3α]
3. CCCCC/C=C\C/C=C\C[C@@H](O)/C=C/C=C\CCCC(=O)O [9(R)-HETE]
4. CCCCC[C@H](O)/C=C/[C@H]1[C@H](O)CC(=O)[C@@H]1C/C=C\CCCC(=O)NCCCCCNC(=O)CCCC[C@H]1SC[C@@H]2NC(=O)N[C@@H]21 [Prostaglandin E2-biotin]
5. CCCCC[C@H](O)/C=C/C=C\C/C=C\C=C\[C@@H](O)CCCC(=O)O [5(S),15(S)-DiHETE]
6. CCCCC[C@H](O)/C=C/C=C\C=C\[C@@H](O)C/C=C\CCCC(=O)O [8(S),15(S)-DiHETE]
7. CCCCC[C@H](O)/C=C/C=C\C/C=C\C/C=C\CCCC(=O)NCCO [15(S)-HETE Ethanolamide]

# output
1: 18.79%; 2: 6.16%; 3: 101.86%; 4: 4.90%; 5: 14.86%; 6: 9.19%; 7: 19.97%

====

Target: human HSD17B13 (Homo sapiens)
Sequence (Q7Z5P4 20-300): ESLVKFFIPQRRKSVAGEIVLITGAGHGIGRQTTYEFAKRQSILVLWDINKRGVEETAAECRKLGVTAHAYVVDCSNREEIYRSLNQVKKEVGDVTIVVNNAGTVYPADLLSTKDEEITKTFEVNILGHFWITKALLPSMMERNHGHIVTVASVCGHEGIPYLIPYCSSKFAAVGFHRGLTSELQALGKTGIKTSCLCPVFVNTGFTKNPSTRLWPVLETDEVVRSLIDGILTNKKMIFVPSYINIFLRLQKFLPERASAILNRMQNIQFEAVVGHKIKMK
Test: Substrate screening of steroid and bioactive lipid libraries against purified recombinant HSD17B13 (NADH-linked luciferase assay)
Assay type: biochemical
Conditions: Bioactive Lipid Library, 5 μM bioactive lipid (Estradiol Control 50 μM), 500 μM NAD+, 100 ng enzyme, 3 hours at 23° C.
Structures can show the parent of a compound that is named as a salt.
For each entry below, report its HSD17B13 Enzymatic Activity Relative Light Units value.
One number for each entry, in RLU.

Record summary for CCCCC/C=C\C[C@@H](O)/C=C/C=C/C=C/[C@@H](O)CCCC(=O)O (relative stereo) [6-trans Leukotriene B4] : reported HSD17B13 Enzymatic Activity Relative Light Units = 1209480

Please give HSD17B13 Enzymatic Activity Relative Light Units, item by item, for the list that follows.
1. CC/C=C\C[C@H](O)/C=C/[C@@H]1[C@@H](CC(=O)CCCCC(=O)O)[C@@H](O)C[C@H]1O
2. CCCCC/C=C\CC(O)C(O)CCCCCCCC(=O)O (racemic) [(±)9(10)-DiHOME]
3. C[C@@H](O)CCC[C@@H](O)/C=C/[C@H]1[C@H](O)CC(=O)[C@@H]1CCCCCCC(=O)O [15(R),19(R)-hydroxy Prostaglandin E1]

# output
[286120, 391000, 333200]

Here are 4 compounds. What values of HSD17B13 Enzymatic Activity Relative Light Units were reported for them?
1. CC(C)OC(=O)CCC/C=C/C[C@@H]1[C@@H](/C=C/[C@@H](O)COc2cccc(C(F)(F)F)c2)[C@H](O)C[C@@H]1O (relative stereo) [5-trans Fluprostenol isopropyl ester]
2. CC/C=C\C/C=C\CC(O)/C=C/C=C\C/C=C\CCCC(=O)O (racemic) [(±)12-HEPE]
3. CC/C=C\C[C@H](O)/C=C/[C@H]1C(=O)C[C@H](O)[C@@H]1C/C=C\CCCC(=O)O
4. O=P(O)(O)O[C@@H]1C(O)[C@@H](OP(=O)(O)O)[C@@H](OP(=O)(O)O)C(O)[C@H]1OP(=O)(O)O (some centres unmarked) [(sodium salt)]

# output
1. 551400
2. 761600
3. 298960
4. 403880

Would you be so kind as to report HSD17B13 Enzymatic Activity Relative Light Units for each listed record?
1. CCCCC/C=C\CC1OC1CCCCCCCC(=O)O (racemic) [(±)9(10)-EpOME]
2. CCCCCC(=O)CC[C@@H]1[C@@H](CC(=O)CCCCC(=O)O)[C@@H](O)C[C@H]1O
3. O=P(O)(O)OC1[C@@H](O)[C@@H](O)C(O)[C@H](O)[C@H]1O (some centres unmarked) [(ammonium salt)]
4. CC#CCC(C)[C@H](O)/C=C/[C@@H]1[C@H]2C/C(=C/CCCC(=O)O)C[C@H]2C[C@H]1O (some centres unmarked)
5. O=P(O)(O)O[C@@H]1[C@H](O)[C@H](O)[C@@H](OP(=O)(O)O)[C@H](OP(=O)(O)O)[C@H]1O [(potassium salt)]

# output
354560
262680
408880
358880
358400

Lab note: each compound below needs its HSD17B13 Enzymatic Activity Relative Light Units filled in.
1. CC/C=C\C[C@H](O)/C=C/[C@@H]1[C@H]2C/C(=C/CCCC(=O)[O-])O[C@H]2C[C@H]1O.[Na+] [Prostaglandin I3 (sodium salt)]
2. CC/C=C\C/C=C\C/C=C\CC(O)/C=C/C=C\C/C=C\CCC(=O)O (racemic) [(±)11-HDHA]
3. CC/C=C\CC(O)C(O)C/C=C\C/C=C\C/C=C\CCCC(=O)O (racemic) [(±)14(15)-DiHETE]
4. CCCCC/C=C\C[C@H]1O[C@H]1C/C=C\C/C=C\CCCC(=O)NCCO [11(12)-EET Ethanolamide]
5. O=P([O-])(O)OC1[C@@H](O)[C@H](OP(=O)([O-])O)C(OP(=O)([O-])O)[C@H](OP(=O)([O-])O)[C@H]1O.[Na+].[Na+].[Na+].[Na+] (some centres unmarked)
6. CCCCCC(O)/C=C/C=C\CCCCCCCC(=O)O (racemic) [(±)13-HODE]
7. CCCCC/C=C\C[C@@H](O)/C=C/C=C\C/C=C\CCCC(=O)O [12(R)-HETE]

# output
333560
1259280
356480
440800
430640
954080
1932320
